All figures here come from the supplement of paper PMC10307832.

Kindly state relative viability for each of the entries shown.
test system: HCC-366; test: relative viability (nuclei count vs DMSO), 5 days (fraction); higher = more cells survive; details: first compound 2.53 µM
Numbers only.

Worked examples follow.
INSERT INTO assay_data (compound, readout_label, data_value) VALUES
  ('Nc1cccc2c1CN(C1CCC(=O)NC1=O)C2=O (stereo not drawn) [Lenalidomide] + N=C(N)NC(=N)NCCc1ccccc1 [Phenformin] (partner 250 µM)', 'relative viability', 0.691),
  ('Nc1cccc2c1CN(C1CCC(=O)NC1=O)C2=O (stereo not drawn) [Lenalidomide] + O=C(CCCCCCC(=O)Nc1ccccc1)NO [Vorinostat] (partner 1 µM)', 'relative viability', 0.479);

Query: Kindly state the measured relative viability obtained for Nc1cccc2c1CN(C1CCC(=O)NC1=O)C2=O (stereo not drawn) [Lenalidomide] + CC(=O)c1c(C)c2cnc(Nc3ccc(N4CCNCC4)cn3)nc2n(C2CCCC2)c1=O [Palbociclib] (partner 0.5 µM) with HCC-366.
Result: 0.505

----------
system: EBC-1; test: relative viability (nuclei count vs DMSO), 5 days (fraction); higher = more cells survive; details: first compound 2.53 µM
Kindly state relative viability for each of the entries shown.
One number for each entry.

INSERT INTO assay_data (compound, data_value) VALUES
  ('Nc1cccc2c1CN(C1CCC(=O)NC1=O)C2=O (stereo not given) [Lenalidomide] + CC(C)C[C@H](NC(=O)[C@H](Cc1ccccc1)NC(=O)c1cnccn1)B(O)O [Bortezomib] (partner 0.002 µM)', 0.684),
  ('Nc1cccc2c1CN(C1CCC(=O)NC1=O)C2=O (stereo not given) [Lenalidomide] + O=C(c1cc(Cc2n[nH]c(=O)c3ccccc23)ccc1F)N1CCN(C(=O)C2CC2)CC1 [Olaparib] (partner 8 µM)', 0.823),
  ('Nc1cccc2c1CN(C1CCC(=O)NC1=O)C2=O (stereo not given) [Lenalidomide] + COc1cc2c(Oc3ccc(NC(=O)C4(C(=O)Nc5ccc(F)cc5)CC4)cc3F)ccnc2cc1OCCCN1CCOCC1 [Foretinib] (partner 0.25 µM)', 0.0994);

Record relative viability per entry; entries follow.
1. Nc1cccc2c1CN(C1CCC(=O)NC1=O)C2=O (stereo not given) [Lenalidomide] + Cc1nc(NC(=O)N2CCC[C@H]2C(N)=O)sc1-c1ccnc(C(C)(C)C(F)(F)F)c1 [Alpelisib] (partner 2 µM)
2. Nc1cccc2c1CN(C1CCC(=O)NC1=O)C2=O (stereo not given) [Lenalidomide] + CS(=O)(=O)CCNCc1ccc(-c2ccc3ncnc(Nc4ccc(OCc5cccc(F)c5)c(Cl)c4)c3c2)o1 [Lapatinib] (partner 2 µM)

Result:
1: 0.907; 2: 0.217

----------
tested on: LK-2; assay: relative viability (nuclei count vs DMSO), 5 days (fraction); higher = more cells survive; conditions: first compound 0.2 µM
With a cut-off of 0.2, any relative viability strictly below it is called Satisfied; any relative viability meeting it or above is called Not satisfied.

Some solved cases for reference:
INSERT INTO measurements (molecule, discrete_label) VALUES
  ('Cc1csc(=NC2CCCCC2)n1/N=C/c1ccc(O)c(O)c1O [MIM1] + CS(=O)(=O)N1CCN(Cc2cc3nc(-c4cccc5[nH]ncc45)nc(N4CCOCC4)c3s2)CC1 [Pictilisib] (partner 1 µM)', 'Not satisfied'),
  ('CN1CCN(CCOc2cc(OC3CCOCC3)c3c(Nc4c(Cl)ccc5c4OCO5)ncnc3c2)CC1 [Saracatinib] + CCNC(=O)c1noc(-c2cc(C(C)C)c(O)cc2O)c1-c1ccc(CN2CCOCC2)cc1 [Luminespib] (partner 0.01 µM)', 'Not satisfied'),
  ('CN1CCN(CCOc2cc(OC3CCOCC3)c3c(Nc4c(Cl)ccc5c4OCO5)ncnc3c2)CC1 [Saracatinib] + COc1cccc2cc(-c3nc([C@H]4CC[C@H](C(=O)O)CC4)n4ncnc(N)c34)[nH]c12 [OSI-027] (partner 0.5 µM)', 'Satisfied'),
  ('Cc1csc(=NC2CCCCC2)n1/N=C/c1ccc(O)c(O)c1O [MIM1] + COc1cc2c(Oc3ccc(NC(=O)C4(C(=O)Nc5ccc(F)cc5)CC4)cc3F)ccnc2cc1OCCCN1CCOCC1 [Foretinib] (partner 0.25 µM)', 'Not satisfied'),
  ('CCNC(=O)c1noc(-c2cc(C(C)C)c(O)cc2O)c1-c1ccc(CN2CCOCC2)cc1 [Luminespib] + CS(=O)(=O)N1CCN(Cc2cc3nc(-c4cccc5[nH]ncc45)nc(N4CCOCC4)c3s2)CC1 [Pictilisib] (partner 1 µM)', 'Not satisfied');

Okay, next one:
Query: For this molecule, is relative viability lower than 0.2? Cc1csc(=NC2CCCCC2)n1/N=C/c1ccc(O)c(O)c1O [MIM1] + Cc1nc(NC(=O)N2CCC[C@H]2C(N)=O)sc1-c1ccnc(C(C)(C)C(F)(F)F)c1 [Alpelisib] (partner 2 µM)
Result: Not satisfied
